- Read-out: Lipoprotein lipase (LPL), LPL (gene 4023)
- assay_protocol: LTEA_HepaRG_LPL: Life Technologies and Expression Analysis (LTEA) Assay for Lipoprotein lipase (LPL) using HepaRG (AID 2283515)
- condition_details: mRNA level, 48 h; actives raise or lower the signal
Active and inactive are the calls of the source. Rule for the calls: active = hit-call score of the fitted dose curve at least 0.9, where 1 is the maximum; inactive = score below 0.9.
Answer with one of the outcomes class 1 = active, class 0 = inactive

Here's what some known entries look like.
compound_string	label_class
COC(=O)[C@H]1[C@H]2C[C@@H]3c4[nH]c5cc(OC)ccc5c4CCN3C[C@H]2C[C@@H](OC(=O)c2cc(OC)c(OC)c(OC)c2)[C@@H]1OC	class 0
CC(C)(O)c1ccc(CNC(=O)c2cccnc2Oc2ccc(F)cc2)cc1	class 0
Cc1cc(SC2=C(O)C[C@@](CCc3ccc(N)cc3)(C(C)C)OC2=O)c(C(C)(C)C)cc1CO	class 0
NC(=Nc1ccccc1)Nc1ccccc1	class 0
CC(=O)O[C@]1(C(C)=O)CC[C@H]2[C@@H]3C=C(Cl)C4=CC(=O)[C@@H]5C[C@@H]5[C@]4(C)[C@H]3CC[C@@]21C	class 1
CC(=O)[C@@]1(O)CC[C@H]2[C@@H]3CCC4=CC(=O)CC[C@]4(C)[C@H]3CC[C@@]21C	class 0
CSc1ccc(Oc2ccc(S(N)(=O)=O)cc2CN(C)C)cc1C	class 1
O=C(NS(=O)(=O)/C=C/c1cccs1)c1ccc(F)cc1Br	class 0

Kindly review the next compound as well.
Exercise: Test call, this compound: CCCCCCCCCCCCCCCCO
Key: class 0
